Test system: Phytophthora infestans
Assay type: in vivo, Phytophthora infestans on tomato
test.conditions: hydrazone 50 ppm + 50 μM CuCl2.2H2O, applied 24 h before inoculation, assessed 7 days after inoculation, tomato
parameter.measured: TLB % Control (%)
Your answer is read as %, so omit the unit and give the number.

O=C(N/N=C/c1cc(Br)cc(Br)c1O)c1ccc(Cl)cc1: 92.6
O=C(N/N=C/c1cc(Cl)cc(Br)c1O)c1ccccc1O: 89.5
O=C(N/N=C/c1cc(Br)ccc1O)c1ccccc1Br: 65.5
O=C(N/N=C/c1cc(I)cc(I)c1O)c1ccccc1: 71.2
COc1cc(Br)cc(/C=N/NC(=O)c2cccc(Cl)c2)c1O: 56.4

Turning now to a further compound:
Query: Please look at this compound and report its TLB % Control: C/C(=N\NC(=O)c1ccc(F)cc1)c1ccccc1O
Reply: 56.1
